- System: OVCAR4
- PROCEDURE_DETAILS: drug sensitivity score (DSS) from 5-point dose-response viability curve (DSS (area-under-curve based score)); higher = more sensitive (stronger growth inhibition or killing); extreme values may be limits of the assay
- EXPERIMENTAL_CONTEXT: exposure time: 72 h; concentration range: 5 concentrations over 10,000-fold range
This listing pairs molecules with measured drug sensitivity score.
Form: value (number only, do not type unit).

{"MOLECULE": "Cc1cccc(-c2nn3c(c2-c2ccnc4ccc(C(N)=O)cc24)CCC3)n1 [Galunisertib]", "TGT": "OVCAR4", "ENDPOINT_RESULT": 0}

# query: drug sensitivity score of entry N#CC(c1ccnc(OCc2ccc(CN3CCOCC3)cc2)n1)c1nc2ccccc2s1 (centres undefined) [Bentamapimod] 1.8

# query: drug sensitivity score of entry CNC(=O)c1ccccc1Nc1cc(Nc2ccc(N3CCOCC3)cc2OC)ncc1C(F)(F)F [VS-4718] 6.8

# query: drug sensitivity score of entry Cc1cc(C)c(CNC(=O)c2cc(-c3ccc(CN4CCOCC4)cc3)cc3c2cnn3C2CCCC2)c(=O)[nH]1 [EPZ-5687] 0

# query: drug sensitivity score of entry S=c1[nH]cnc2nc[nH]c12 [Mercaptopurine] 12.3

# query: drug sensitivity score of entry O=C(O)C(=O)O.[NH-][C@@H]1CCCC[C@H]1[NH-].[Pt+2] [Oxaliplatin] 8.5
